# Target Or System: membrane-bound tissue factor (TF) on cells (human, UniProt P13726 33-295)
# Assay Overview: cell-based or functional assay
Measured Attribute: EC50 of cell killing, BxPC3 cells, anti-kappa-ETA' assay
The answer consists of two parts: a number and, after it, its unit.

Item HuMab-TF-044 (antibody, V domains shown) VH: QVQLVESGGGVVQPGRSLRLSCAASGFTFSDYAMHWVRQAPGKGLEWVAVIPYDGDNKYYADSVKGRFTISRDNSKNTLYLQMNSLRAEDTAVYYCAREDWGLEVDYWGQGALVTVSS VL: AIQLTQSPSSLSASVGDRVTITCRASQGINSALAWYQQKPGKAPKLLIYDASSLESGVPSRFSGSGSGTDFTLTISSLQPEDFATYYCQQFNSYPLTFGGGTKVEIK has what recorded EC50 of cell killing, BxPC3 cells, anti-kappa-ETA' assay?
0.015 µg/mL
